# Target desc: CB1 receptors (Rattus norvegicus)
# Sequence (P20272 whole entry): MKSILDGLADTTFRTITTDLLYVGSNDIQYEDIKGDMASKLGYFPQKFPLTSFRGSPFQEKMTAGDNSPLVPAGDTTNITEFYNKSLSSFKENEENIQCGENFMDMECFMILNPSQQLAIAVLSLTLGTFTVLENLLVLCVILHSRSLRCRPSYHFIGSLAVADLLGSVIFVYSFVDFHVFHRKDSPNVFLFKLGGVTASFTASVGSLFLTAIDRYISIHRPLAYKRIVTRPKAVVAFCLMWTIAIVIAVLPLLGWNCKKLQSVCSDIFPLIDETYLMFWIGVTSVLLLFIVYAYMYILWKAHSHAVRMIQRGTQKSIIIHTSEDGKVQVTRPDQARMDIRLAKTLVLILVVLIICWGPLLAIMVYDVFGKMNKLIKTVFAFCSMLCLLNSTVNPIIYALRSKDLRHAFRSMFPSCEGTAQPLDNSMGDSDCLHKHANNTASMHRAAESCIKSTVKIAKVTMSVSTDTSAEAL
# Assay info: CB1 receptor binding, displacement of [3H]CP-55,940 from rat brain P2 membranes (Example 2)
# Parameters: from tissue; host or cells: whole rat brain membranes
# Condition summary: rat brain membranes, [3H]CP 55,940, PMSF 100 μM; read-out: CB1 (Ki, nM), determined in the presence of PMSF
Recorded metric: Ki (nM)
Numeric answer only, unit nM assumed.

q: Please report the recorded Ki for C[C@H](CO)NC(=O)CCC/C=C\C/C=C\C/C=C\C/C=C\C(C)(C)CCCCO [Compound O-1811] .
a: 116

====

# Target desc: fatty acid amide hydrolase (FAAH) (Mus musculus)
# Construct: membranes prepared from N18TG2 cells; endogenous in cells; host or cells: N18TG2 cell membranes
# Sequence (O08914 whole entry): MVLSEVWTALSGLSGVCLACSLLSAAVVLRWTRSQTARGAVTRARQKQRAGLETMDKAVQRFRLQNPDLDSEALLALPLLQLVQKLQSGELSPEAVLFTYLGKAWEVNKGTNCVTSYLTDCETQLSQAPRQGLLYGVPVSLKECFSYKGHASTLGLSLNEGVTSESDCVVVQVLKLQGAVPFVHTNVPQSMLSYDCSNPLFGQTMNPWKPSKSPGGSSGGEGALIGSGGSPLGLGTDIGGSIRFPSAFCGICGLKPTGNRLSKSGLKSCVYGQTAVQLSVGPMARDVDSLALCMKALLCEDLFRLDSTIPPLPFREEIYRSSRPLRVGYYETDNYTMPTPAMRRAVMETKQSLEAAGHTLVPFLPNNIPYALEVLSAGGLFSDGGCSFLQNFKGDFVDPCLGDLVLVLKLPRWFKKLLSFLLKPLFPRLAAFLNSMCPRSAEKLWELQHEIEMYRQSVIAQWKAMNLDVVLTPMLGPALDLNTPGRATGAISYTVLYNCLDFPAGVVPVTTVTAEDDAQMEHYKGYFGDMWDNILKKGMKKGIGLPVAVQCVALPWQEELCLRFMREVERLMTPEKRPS
# Assay info: [14C]AEA hydrolysis by N18TG2 cell membranes
# Type: biochemical
# Condition summary: [14C]AEA hydrolysis, N18TG2 cell membranes; read-out: FAAH (IC50)
Recorded metric: IC50

q: What value of IC50 has been reported for the following compound? "C[C@H](CO)NC(=O)CCC/C=C\C/C=C\C/C=C\C/C=C\C(C)(C)CCCCO"
a: > 50 µM

====

# Target desc: human VR1 receptor (Homo sapiens, UniProt Q8NER1)
# Sequence (Q8NER1 whole entry): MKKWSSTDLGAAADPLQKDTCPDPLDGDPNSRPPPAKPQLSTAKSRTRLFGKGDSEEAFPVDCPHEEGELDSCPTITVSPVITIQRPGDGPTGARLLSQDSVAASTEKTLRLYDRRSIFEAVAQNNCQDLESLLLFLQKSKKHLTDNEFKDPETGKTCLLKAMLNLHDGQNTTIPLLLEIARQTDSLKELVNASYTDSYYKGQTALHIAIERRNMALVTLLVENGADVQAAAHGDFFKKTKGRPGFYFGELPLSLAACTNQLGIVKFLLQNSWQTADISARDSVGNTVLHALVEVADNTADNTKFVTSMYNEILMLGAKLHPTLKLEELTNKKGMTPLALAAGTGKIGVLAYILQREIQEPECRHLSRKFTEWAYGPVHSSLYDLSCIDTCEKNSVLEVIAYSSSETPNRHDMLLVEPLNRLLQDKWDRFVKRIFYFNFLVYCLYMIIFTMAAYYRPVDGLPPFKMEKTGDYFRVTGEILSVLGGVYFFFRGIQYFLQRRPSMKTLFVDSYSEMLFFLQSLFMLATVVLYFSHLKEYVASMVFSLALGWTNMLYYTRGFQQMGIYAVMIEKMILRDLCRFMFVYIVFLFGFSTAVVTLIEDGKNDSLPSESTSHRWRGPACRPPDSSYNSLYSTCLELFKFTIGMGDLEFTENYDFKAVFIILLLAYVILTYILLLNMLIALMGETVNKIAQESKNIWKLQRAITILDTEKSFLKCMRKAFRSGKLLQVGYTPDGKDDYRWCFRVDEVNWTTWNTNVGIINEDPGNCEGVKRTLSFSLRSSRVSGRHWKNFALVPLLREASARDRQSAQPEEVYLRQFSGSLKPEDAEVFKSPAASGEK
# Assay info: Ca2+ influx (Fluo-3) in HEK-hVR1 cells (Example 2)
# Assay type: cell-based
# Parameters: expressed in transfected cells; host or cells: HEK 293 cells (HEK-hVR1)
# Condition summary: Ca2+ in HEK cells with human VR1; read-out: VR1 (EC50)
Recorded metric: pEC50
Expect pEC50 as a plain number equal to -log10 of the molar concentration.

q: Look at this compound and give its reported pEC50. "C[C@H](CO)NC(=O)CCC/C=C\C/C=C\C/C=C\C/C=C\C(C)(C)CCCCO"
a: 6.14

====

# Target desc: human VR1 receptor (Homo sapiens, UniProt Q8NER1)
# Assay info: Cytosolic calcium concentration assay in HEK-hVR1 cells (Example 3)
Quick list: EC50 per entry.
Write the value in nM as a bare number.

[[record]]
compound = "CCCCC/C=C\\C/C=C\\C/C=C\\C/C=C\\CCCC(=O)NCc1ccc(OC(=O)CCCN2CCOCC2)c(OC)c1 [Compound O-2142]"
target_desc = "human VR1 receptor (Homo sapiens, UniProt Q8NER1)"
recorded_metric = "EC50"
recorded_value = 0.6

[[record]]
compound = "CCCCC/C=C\\C/C=C\\C/C=C\\C/C=C\\CCCC(=O)NCc1cccc(OC)c1 [Compound O-1986]"
target_desc = "human VR1 receptor (Homo sapiens, UniProt Q8NER1)"
recorded_metric = "EC50"
recorded_value = 63

[[record]]
compound = "CCCCC/C=C\\C/C=C\\C/C=C\\C/C=C\\CCCNC(=S)NCc1ccc(O)c(Cl)c1 [Compound O-2109]"
target_desc = "human VR1 receptor (Homo sapiens, UniProt Q8NER1)"
recorded_metric = "EC50"
recorded_value = 4

[[record]]
compound = "CCCCC/C=C\\C/C=C\\C/C=C\\C/C=C\\CCCNC(=O)NCc1ccc(O)c(OC)c1 [Compound O-1987]"
target_desc = "human VR1 receptor (Homo sapiens, UniProt Q8NER1)"
recorded_metric = "EC50"
recorded_value = 0.7

[[record]]
compound = "CCCCC/C=C\\C/C=C\\C/C=C\\C/C=C\\CCCNC(=S)NCc1ccc(O)c(OC)c1 [Compound O-2095]"
target_desc = "human VR1 receptor (Homo sapiens, UniProt Q8NER1)"
recorded_metric = "EC50"
recorded_value = 0.4


q: Any idea what EC50 came out for CCCCC/C=C\C/C=C\C/C=C\C/C=C\CCCC(=O)NCc1ccc(O)c(Cl)c1 [Compound O-2094] on human VR1 receptor (Homo sapiens, UniProt Q8NER1)?
a: 10

q: Test system human VR1 receptor (Homo sapiens, UniProt Q8NER1); read-out EC50; what value for CCCCC/C=C\C/C=C\C/C=C\C/C=C\CCCC(=O)N(C)Cc1ccc(O)c(OC)c1 [Compound O-1988] ?
a: 25

====

# Target desc: UniProtKB Q8NER1
# Assay info: Ca2+ influx (Fluo-3) in HEK-hVR1 cells (Example 2)
# Type: cell-based
# Design: expressed in transfected cells; host or cells: HEK 293 cells (HEK-hVR1)
# Condition summary: VR1 (EC50, nM), Ca2+ in HEK cells with human VR1
# note: exactly 30 nM is not below, so it is Condition not met; use Condition met for EC50 strictly under it

Answered cases to consult:
[[record]]
compound = "CCCCCCC(C)(C)/C=C\\C/C=C\\C/C=C\\C/C=C\\CCCC(=O)NCc1ccc(O)c(OC)c1 [Compound O-1839]"
cat = "Condition met"

[[record]]
compound = "COc1cc(CNC(=O)CCC/C=C\\C/C=C\\C/C=C\\C/C=C\\C(C)(C)CCCCO)ccc1O [Compound O-1856]"
cat = "Condition met"

[[record]]
compound = "C[C@H](CO)NC(=O)CCC/C=C\\C/C=C\\C/C=C\\C/C=C\\C(C)(C)CCCCBr [Compound O-1860]"
cat = "Condition not met"

[[record]]
compound = "COc1cc(CNC(=O)CCC/C=C\\C/C=C\\C/C=C\\C/C=C\\C(C)(C)CCCCC#N)ccc1O [Compound O-1895]"
cat = "Condition met"


q: Identify whether the compound C[C@H](CO)NC(=O)CCC/C=C\C/C=C\C/C=C\C/C=C\C(C)(C)CCCCC#N [Compound O-1812] records EC50 below 30 nM.
a: Condition not met

====

# Target desc: CB2 receptors (Rattus norvegicus, UniProt Q9QZN9)
# Construct: rat spleen membranes, which contain mostly CB2 receptors; from tissue; host or cells: rat spleen membranes
# Sequence (Q9QZN9 whole entry): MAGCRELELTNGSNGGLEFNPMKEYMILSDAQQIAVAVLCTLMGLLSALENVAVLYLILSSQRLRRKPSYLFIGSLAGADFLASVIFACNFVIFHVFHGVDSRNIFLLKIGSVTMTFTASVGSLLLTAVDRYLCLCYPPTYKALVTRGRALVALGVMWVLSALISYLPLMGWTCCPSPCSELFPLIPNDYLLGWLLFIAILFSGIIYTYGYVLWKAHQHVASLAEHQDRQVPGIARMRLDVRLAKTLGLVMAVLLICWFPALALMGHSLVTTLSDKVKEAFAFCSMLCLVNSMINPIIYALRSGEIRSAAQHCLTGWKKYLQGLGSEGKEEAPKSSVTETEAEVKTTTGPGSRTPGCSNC
# Assay info: CB2 binding, displacement of [3H]WIN55,212-2 from rat spleen membranes
# Condition summary: rat spleen membranes; read-out: CB2 (Ki)
# Description: For CB1 receptor binding, [^3H]CP-55,940 (Kd=[…]) was incubated with P2 membranes from whole rat brains as described in Compton et al., J. Pharm. Exp. Ther. 265:218-226 (1993). Displacement curves were generated by incubating drugs with 1 nM of [^3H]CP-55,940. […] In all cases, Ki values were calculated applying the Cheng-Prusoff equation to the IC50 values (obtained by GraphPad) for the displacement of the bound radioligand by increasing concentrations of the test compounds. […]
Recorded metric: Ki (nM)
Expressed in nM, but write only the number.

q: Need Ki of "C[C@H](CO)NC(=O)CCC/C=C\C/C=C\C/C=C\C/C=C\C(C)(C)CCCCO" , thanks.
a: 800

====

# Target desc: CB1 receptors (Rattus norvegicus)
# Assay info: CB1 receptor binding, displacement of [3H]CP-55,940 from rat brain P2 membranes (Example 2)
# Parameters: from tissue; host or cells: whole rat brain membranes
# Condition summary: CB1 (Ki, nM), rat brain membranes, [3H]CP 55,940, without PMSF
Recorded metric: Ki (nM)
Number in nM, nothing else.

Worked examples follow.
[[record]]
compound = "COc1cc(CNC(=O)CCC/C=C\\C/C=C\\C/C=C\\C/C=C\\C(C)(C)CCCCC#N)ccc1O [Compound O-1895]"
value_units = "nM"
recorded_value = 67

[[record]]
compound = "C[C@H](CO)NC(=O)CCC/C=C\\C/C=C\\C/C=C\\C/C=C\\C(C)(C)CCCCC#N [Compound O-1812]"
value_units = "nM"
recorded_value = 3.4

[[record]]
compound = "C[C@H](CO)NC(=O)CCC/C=C\\C/C=C\\C/C=C\\C/C=C\\C(C)(C)CCCCBr [Compound O-1860]"
value_units = "nM"
recorded_value = 2.2

[[record]]
compound = "COc1cc(CNC(=O)CCC/C=C\\C/C=C\\C/C=C\\C/C=C\\C(C)(C)CCCCBr)ccc1O [Compound O-1861]"
value_units = "nM"
recorded_value = 32.6

[[record]]
compound = "CCCCCCC(C)(C)/C=C\\C/C=C\\C/C=C\\C/C=C\\CCCC(=O)NCc1ccc(O)c(OC)c1 [Compound O-1839]"
value_units = "nM"
recorded_value = 262


Attention now shifts to the item below.
q: Which Ki is listed for COc1cc(CNC(=O)CCC/C=C\C/C=C\C/C=C\C/C=C\C(C)(C)CCCCO)ccc1O [Compound O-1856] ?
a: 790
